Target: GLP-1 receptor (UniProt P43220 24-463, limits assumed)
Sequence (P43220 24-463 limits assumed): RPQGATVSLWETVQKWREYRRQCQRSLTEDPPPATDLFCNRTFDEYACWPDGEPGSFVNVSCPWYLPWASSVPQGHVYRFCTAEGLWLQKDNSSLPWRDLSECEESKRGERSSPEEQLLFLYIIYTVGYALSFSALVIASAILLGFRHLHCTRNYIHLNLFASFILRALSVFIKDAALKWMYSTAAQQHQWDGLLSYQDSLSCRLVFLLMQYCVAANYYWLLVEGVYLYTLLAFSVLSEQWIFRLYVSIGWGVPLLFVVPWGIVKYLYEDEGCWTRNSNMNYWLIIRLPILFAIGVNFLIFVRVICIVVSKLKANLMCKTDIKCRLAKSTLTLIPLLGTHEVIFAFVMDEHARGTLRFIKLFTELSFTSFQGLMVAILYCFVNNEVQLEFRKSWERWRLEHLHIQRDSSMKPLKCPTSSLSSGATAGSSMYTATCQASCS
Assay: cell-based or functional assay
*1 amine or outer side, *2 acyl side, *3 side chain or, on linkers, in order; H or OH if unused. Where no end group is shown, it is not given here. Side-chain parts run from the residue outwards. [ ]: non-standard residue; d: D form. The star is where a group is joined. γGlu = O=C(O)[C@H](CCC(=O)[*:2])N[*:1]; Palmitoyl = CCCCCCCCCCCCCCCC(=O)*; Aib = CC(C)(N)C(=O)O
Listing of entries alongside the reported EC50 at GLP-1 Receptor.
Reported Endpoint: EC50 at GLP-1 Receptor (pM)

[[record]]
binder = "H[Aib]QGTFTSEYSKYLDERAAQDFVQWLLDGGPSSGAPPPSK([γGlu-γGlu-Palmitoyl])G-NH2 [peptide of SEQ ID NO: 16]"
reported_endpoint = "EC50 at GLP-1 Receptor"
value_units = "pM"
assay_result = 2

[[record]]
binder = "H[Aib]QGTFTSDK([γGlu-Palmitoyl])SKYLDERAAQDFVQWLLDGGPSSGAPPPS-NH2 [peptide of SEQ ID NO: 10]"
reported_endpoint = "EC50 at GLP-1 Receptor"
value_units = "pM"
assay_result = 4

[[record]]
binder = "H[Aib]QGTFTSDYSKYLEERAAQDFVQWLLDGGPSSGAPPPSK([γGlu-γGlu-Palmitoyl])G-NH2 [peptide of SEQ ID NO: 15]"
reported_endpoint = "EC50 at GLP-1 Receptor"
value_units = "pM"
assay_result = 3

[[record]]
binder = "H[Aib]QGTFTSDYAKYLDERAAQDFVQWLLDGGPSSGAPPPSK([γGlu-γGlu-Palmitoyl])G-NH2 [peptide of SEQ ID NO: 17]"
reported_endpoint = "EC50 at GLP-1 Receptor"
value_units = "pM"
assay_result = 8

[[record]]
binder = "H[Aib]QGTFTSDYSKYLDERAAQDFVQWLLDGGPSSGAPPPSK([γGlu-γGlu-Palmitoyl])G-NH2 [peptide of SEQ ID NO: 11]"
reported_endpoint = "EC50 at GLP-1 Receptor"
value_units = "pM"
assay_result = 1

